All figures here come from patent US11447486B2.

# subjectOfTest: human 5-LOX (Homo sapiens, UniProt P09917)
# Construct: purchased Cayman 60402; host or cells: insect cells (lysate)
# Sequence (P09917 whole entry): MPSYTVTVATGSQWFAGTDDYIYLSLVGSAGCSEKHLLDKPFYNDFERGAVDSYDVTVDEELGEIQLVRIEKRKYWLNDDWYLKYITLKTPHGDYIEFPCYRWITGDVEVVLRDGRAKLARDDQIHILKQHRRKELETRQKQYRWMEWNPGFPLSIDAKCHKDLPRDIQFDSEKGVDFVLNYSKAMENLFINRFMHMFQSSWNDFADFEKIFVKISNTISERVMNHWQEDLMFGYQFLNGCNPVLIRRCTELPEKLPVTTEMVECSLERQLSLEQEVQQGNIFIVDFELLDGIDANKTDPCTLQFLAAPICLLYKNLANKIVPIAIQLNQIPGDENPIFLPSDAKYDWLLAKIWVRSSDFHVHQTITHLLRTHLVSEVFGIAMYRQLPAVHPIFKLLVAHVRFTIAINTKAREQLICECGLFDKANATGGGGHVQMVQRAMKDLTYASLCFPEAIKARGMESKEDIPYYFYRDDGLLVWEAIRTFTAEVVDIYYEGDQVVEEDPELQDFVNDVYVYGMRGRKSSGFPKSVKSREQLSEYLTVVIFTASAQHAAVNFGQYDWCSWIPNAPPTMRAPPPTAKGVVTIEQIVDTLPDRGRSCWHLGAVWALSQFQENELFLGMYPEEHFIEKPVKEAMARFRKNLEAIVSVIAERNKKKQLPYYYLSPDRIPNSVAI
# measurementNotes: 5-LOX enzyme activity, fluorescence method (5-HPETE, H2DCFDA)
# Format: biochemical
# setupConditions: read-out: 5-LO (IC50)
measurementKind: IC50

Some compounds with known IC50 results, for comparison:
compound | measured
Cn1c(NCc2ccc(Oc3ccc(Cl)cc3)cc2)nc2ccc(NCC(N)=O)cc21 [Compound 170] | < 1 µM
CN(C)c1nc2ccc(NCc3ccc(C4(C#N)CCOCC4)cc3)cc2[nH]1 [Compound 241] | < 1 µM
Nc1ccc2[nH]c(NCc3ccc(Oc4ccc(Cl)cc4)cc3)nc2c1 [Compound 86] | < 1 µM
CCn1c(NCc2ccc(Oc3cnc(Cl)cn3)cc2)nc2ccc(Nc3n[nH]c(C)c3Cl)cc21 [Compound 515] | > 10 µM

Ask: I would be grateful if you could share the reported IC50 for CN(C)c1nc2cc(NCc3ccc(-c4ncco4)cc3)ccc2[nH]1 [Compound 220] .
Result: < 1 µM

Ask: Item under review: Nc1ccc2nc(N)n(Cc3ccc(Oc4ccc(Cl)nc4)cc3)c2c1 [Compound 238] . Reported IC50?
Result: < 1 µM

Ask: What value of measured IC50 is listed for CC(C)(C)Nc1nc2cc(N)ccc2n1CCOc1ccc(OC(F)(F)F)cc1 [Compound 66] ?
Result: < 1 µM

Ask: Field request: IC50 | item: Cn1c(NCc2ccc(Oc3ncc(Cl)cn3)cc2)nc2ccc(Nc3ccccn3)cc21 [Compound 447]
Result: 1 to 10 µM

Ask: IC50 for CCC(Nc1ccc2[nH]c(N(C)C)nc2c1)c1ccc(Oc2ccc(OC(F)(F)F)cc2)cc1 (stereo not shown) [Compound 132] ?
Result: < 1 µM

Ask: # query: IC50 of entry Cc1cccnc1Nc1ccc2nc(NCc3ccc(Oc4ncc(Cl)cn4)cc3)n(C)c2c1 [Compound 464]
Result: 1 to 10 µM

Ask: Return reported IC50; argument: Nc1ccc2nc(N)n(Cc3ccc(Oc4ccc(Cl)cc4)cc3)c2c1 [Compound 111]
Result: < 1 µM

Ask: // IC50 lookup, key: COc1cc(Oc2ccc(Cl)cn2)ccc1CNc1nc2ccc(NC3COC3)cc2n1C [Compound 328]
Result: < 1 µM

Ask: Name the reported IC50 value associated with the compound Nc1ccc2nc(NCC(=O)O)n(Cc3ccc(Oc4ccc(Cl)cc4)cc3)c2c1 [Compound 225]
Result: < 1 µM

###

# Test system: Rat whole blood (RWB)
# measurementNotes: LTB4 secretion assay in RWB (rat whole blood)
# Type: cell-based
# setupConditions: Rattus norvegicus
measurementKind: EC50

# example entries with known answers
compound | EC50
CC(C)(O)CNc1nc2ccc(N)cc2n1Cc1ccc(Oc2ccc(Cl)cc2)cc1 | < 10 µM
Cn1c(NCc2ccc(Oc3ncc(Cl)cn3)cc2)nc2ccc(Nc3ccccn3)cc21 | < 10 µM
Cn1c(NCc2ccc(Oc3ncc(Cl)cn3)cc2)nc2ccc(NC3COC3)cc21 | < 10 µM
Nc1ccc2[nH]c(NCc3cccc(Oc4ccc(Cl)cc4)c3)nc2c1 | < 10 µM

Ask: Data request, read-out EC50, for "Cc1cc(Nc2ccc3nc(NCc4ccc(Oc5ccc(Cl)cn5)cc4)n(C)c3c2)n[nH]1"
Result: < 10 µM

Ask: Return reported EC50; argument: "Nc1ccc2[nH]c(NCc3ccc(OCc4ccc(Cl)cc4)cc3)nc2c1"
Result: > 20 µM

Ask: Quick check: EC50 of "Nc1ccc2[nH]c(NCc3ccc(-c4ccccc4)cc3)nc2c1" ?
Result: 10 to 20 µM

Ask: EC50 lookup needed for "Cn1c(NCc2ccc(OCc3ccc(Cl)cn3)cc2)nc2ccc(NC3COC3)cc21" , thanks.
Result: > 20 µM

Ask: Suppose we examine the compound "Cn1nc(Nc2cc(F)c3nc(NCc4ccc(Oc5ncc(Cl)cn5)cc4)n(C)c3c2)cc1C(F)(F)F" ; what EC50 value has been reported?
Result: 10 to 20 µM

Ask: Need EC50 of "Cn1c(NCc2ccc(Oc3ccc(Cl)cn3)cc2)nc2ccc(NC(C)(C)C(N)=O)cc21" , thanks.
Result: < 10 µM

Ask: What value of measured EC50 is listed for CC(Nc1ccc2nc(N(C)C)[nH]c2c1)c1ccc(Oc2ccc(Cl)cn2)cc1 (stereo not shown) ?
Result: 10 to 20 µM

Ask: Give the measured EC50 of "CN(C)c1nc2cc(N)ccc2n1CCOc1ccc(Cl)cc1" .
Result: > 20 µM

Ask: Return reported EC50; argument: "Nc1nc2ccc(Nc3n[nH]cc3C(=O)NC3CC3)cc2n1CCOc1ccc(OC(F)(F)F)cc1"
Result: > 20 µM

Ask: Which EC50 value belongs to CCC(Nc1nc2ccc(Nc3cc(C4CC4)[nH]n3)cc2n1C)c1ccc(Oc2ncc(Cl)cn2)cc1 (stereo not shown) ?
Result: < 10 µM

Ask: So what does the record say about EC50 for "Cn1c(NCc2ccc(Oc3ccc(Cl)cn3)c(F)c2)nc2ccc(NC3COC3)cc21" ?
Result: < 10 µM

Ask: Entry under review: CCC(Nc1nc2ccc(Nc3cc(C(F)(F)F)n(C)n3)cc2n1C)c1ccc(Oc2ncc(Cl)cn2)cc1 (stereo not shown) . Reported EC50?
Result: < 10 µM

Ask: Fill in the blank: the reported EC50 of CCC(Nc1ccc2[nH]c(N(C)C)nc2c1)c1ccc(Oc2ccc(OC(F)(F)F)cc2)cc1 (stereo not shown) is ____.
Result: > 20 µM

Ask: # lookup: EC50 of "Nc1ccc2nc(NCCOc3ccc(OC(F)(F)F)cc3)[nH]c2c1"
Result: < 10 µM

Ask: Data request, read-out EC50, for "CCn1c(NCc2ccc(Oc3cnc(Cl)cn3)cc2)nc2ccc(Nc3cc(C(C)(C)C)[nH]n3)cc21"
Result: < 10 µM

Ask: Give the measured EC50 of "Cn1c(NCc2ccc(Oc3ccc(C(F)(F)F)nc3)cc2)nc2ccc(NC3COC3)cc21" .
Result: < 10 µM

Ask: Can you share its EC50? I mean this compound: "Cc1cc(Nc2ccc3nc(NCc4ccc(Oc5ncc(Cl)cn5)cc4)[nH]c3c2)n[nH]1"
Result: < 10 µM

Ask: Query: EC50; subject: "Cn1c(NCc2ccc(Oc3ncc(Cl)cn3)cc2)nc2ccc(Nc3cc[nH]n3)cc21"
Result: < 10 µM
